Catalogue of log10 IC50 readings, one per entry.
system: α-glucosidase (EC 3.2.1.20) (Saccharomyces cerevisiae)
Sequence (P53341 whole entry): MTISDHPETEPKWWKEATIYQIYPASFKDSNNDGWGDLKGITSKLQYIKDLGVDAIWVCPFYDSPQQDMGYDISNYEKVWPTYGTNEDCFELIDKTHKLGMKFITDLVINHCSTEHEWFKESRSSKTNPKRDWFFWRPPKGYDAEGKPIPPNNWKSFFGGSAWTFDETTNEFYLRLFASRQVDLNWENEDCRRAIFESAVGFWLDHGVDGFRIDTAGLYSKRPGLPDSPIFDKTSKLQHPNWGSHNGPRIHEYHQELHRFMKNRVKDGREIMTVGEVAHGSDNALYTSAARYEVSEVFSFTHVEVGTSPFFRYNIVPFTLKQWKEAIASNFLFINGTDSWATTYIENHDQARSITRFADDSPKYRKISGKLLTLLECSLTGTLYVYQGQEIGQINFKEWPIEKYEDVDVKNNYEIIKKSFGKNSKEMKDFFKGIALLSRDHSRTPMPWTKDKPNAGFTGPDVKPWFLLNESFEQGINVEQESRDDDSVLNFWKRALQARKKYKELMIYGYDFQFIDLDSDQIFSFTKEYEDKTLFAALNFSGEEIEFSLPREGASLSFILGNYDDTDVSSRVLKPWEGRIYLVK
protocol.notes: biochemical
Type: biochemical
All values: base-10 log of IC50 in µM.

Observe how each entry below is paired with its result.
O=C(/C=C/c1ccccc1)OCCCCCCN1C[C@H](O)[C@@H](O)[C@H](O)[C@H]1CO [Compound 29] ... 2.99
COC(=O)C=Cc1ccc(OCCCCCN2CC(O)C(O)C(O)C2CO)cc1 (stereo not shown) [Compound 33] ... 2.78
O=C(/C=C/c1ccccc1)OCCCN1C[C@H](O)[C@@H](O)[C@H](O)[C@H]1CO [Compound 26] ... 3.04
COC(=O)C=Cc1ccc(OCCCCN2CC(O)C(O)C(O)C2CO)cc1 (stereo not shown) [Compound 32] ... 2.82
O=C(/C=C/c1ccccc1)OCCN1C[C@H](O)[C@@H](O)[C@H](O)[C@H]1CO [Compound 25] ... 3.04

The compound identified as O=C(/C=C/c1ccccc1)c1ccccc1OCCN1CC(O)C(O)C(O)C1CO (stereo not shown) [Compound 40] registered its log10 IC50 at 2.21

According to the records, this compound COC(=O)/C=C/c1ccc(OCCN2CC(O)C(O)C(O)C2CO)cc1 (stereo not shown) [Compound 30] displays log10 IC50 of 3.10
